Molecular target: T1, mouse Sortilin expressed on 293 / HEK293T cells (mouse, UniProt Q6PHU5 74-825)
T1 construct: full-length recombinant mouse Sortilin; also called mSort; msSort
Test: FACS, HEK293T + msSort
The entries below are paired with their reported pKd.
Conceptually, pKd converts a concentration in mol/L into minus its log10.

Examples from the recorded data:
binder	attribute_measured	result
S-15-3 (antibody, V domains shown, IgG) VH: QVQLVQSGAEVKKPGASVKVSCKASGYTFTSTYMSWVRQAPGQGLEWMGIINPYGGSTSYAQKFQGRVTMTRDTSTSTVYMELSSLRSEDTAVYYCARDPSGIAAAGPASRYYYGMDVWGQGTTVTVSS VL: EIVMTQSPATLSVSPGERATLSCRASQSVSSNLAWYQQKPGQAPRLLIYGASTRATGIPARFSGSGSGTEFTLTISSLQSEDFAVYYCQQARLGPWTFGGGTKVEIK	pKd	7.75
S-22-7 (antibody, V domains shown, IgG) VH: QVQLVQSGAEVKKPGSSVKVSCKASGGTFSSYAISWVRQAPGQGLEWMGGIIPGFGRANYAQKFQGRVTITADESTSTAYMELSSLRSEDTAVYYCARQGRKTGYYYYYGMDVWGQGTTVTVSS VL: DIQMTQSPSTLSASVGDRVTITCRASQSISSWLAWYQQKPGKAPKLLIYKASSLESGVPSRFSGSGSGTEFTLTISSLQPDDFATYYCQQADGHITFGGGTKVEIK	pKd	8.32
S-2-2 (antibody, V domains shown, IgG) VH: QVQLVQSGAEVKKPGASVKVSCKASGYTFVAYYMHWVRQAPGQGLEWMGWINPNSGATRYAQKFQGRVTMTRDTSISTAYMELSRLRSDDTAVYYCARGKRSSGWYEGYGMDVWGQGTTVTVSS VL: DIQMTQSPSSLSASVGDRVTITCRASQSISSYLNWYQQKPGKAPKLLIYAASSLQSGVPSRFSGSGSGTDFTLTISSLQPEDFATYYCQQSDVSPITFGGGTKVEIK	pKd	8.64

Q) Given the binder S-15-14 (antibody, V domains shown, IgG) VH: QVQLVQSGAEVKKPGASVKVSCKASGYTFTSQYMSWVRQAPGQGLEWMGIINPYGGSTSYAQKFQGRVTMTRDTSTSTVYMELSSLRSEDTAVYYCARDPSGIAAAGPASRYYYGMDVWGQGTTVTVSS VL: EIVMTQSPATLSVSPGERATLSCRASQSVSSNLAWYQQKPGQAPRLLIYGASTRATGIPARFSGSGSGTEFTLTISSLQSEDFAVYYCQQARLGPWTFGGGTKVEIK , write its reported pKd.
A) 7.71

Q) Give pKd for S-22-9 (antibody, V domains shown, IgG) VH: QVQLVQSGAEVKKPGSSVKVSCKASGGTFRNYAISWVRQAPGQGLEWMGGIIPIGGWANYAQKFQGRVTITADESTSTAYMELSSLRSEDTAVYYCARQGRKTGYYYYYGMDVWGQGTTVTVSS VL: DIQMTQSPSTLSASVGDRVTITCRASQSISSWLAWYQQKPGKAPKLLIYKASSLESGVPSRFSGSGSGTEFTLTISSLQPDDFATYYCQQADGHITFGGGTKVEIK
A) 8.29

Q) In one line, give reported pKd of the entry S-22-3 (antibody, V domains shown, IgG) VH: QVQLVQSGAEVKKPGSSVKVSCKASGGTFRSYAISWVRQAPGQGLEWMGGIIPGFGTAWYAQKFQGRVTITADESTSTAYMELSSLRSEDTAVYYCARQGRKTGYYYYYGMDVWGQGTTVTVSS VL: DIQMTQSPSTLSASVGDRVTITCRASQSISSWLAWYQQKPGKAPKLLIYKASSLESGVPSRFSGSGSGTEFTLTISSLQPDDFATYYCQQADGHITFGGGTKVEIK .
A) 8.44
